System: SNB-75 CNS
run description: NCI tumour cell line growth inhibition, 48 h
quantity kind: TGI

{"columns": ["compound", "experimental result"],
 "data": [
  ["C/C(=N\\Nc1ccccc1)c1sc(-c2nc(C)c(/C(C)=N/Nc3ccccc3)s2)nc1C", "> 77.1 µM"],
  ["CC1CC(C[N+](=O)[O-])CC2(C1)OCCO2 (stereo not drawn)", "> 100 µM"],
  ["CC[C@H](C)[C@H](NC(=O)N(CCC#N)CCN(CCN(C(=O)N[C@@H](Cc1ccccc1)C(=O)OC)c1ccccc1)C(=O)N[C@H](C(=O)OC)C(C)C)C(=O)OC", "43.1 µM"],
  ["Cc1ccsc1/C=N/NC1=NCCN1", "> 100 µM"],
  ["COc1ccc(CN(CCN(C)C)c2ccccn2)cc1 (tested in a mixture with another compound)", "> 100 µM"],
  ["CCOC(=O)/C=C/n1c2ccccc2c(=O)c2cc(OC)ccc21", "> 100 µM"],
  ["CCc1cccc(C(C)C)c1NC(=O)CC1Sc2ccccc2NC1=O (stereo not drawn)", "> 100 µM"]
]}

Then there is this compound:
**Q:** Quick one: TGI of N=c1c2sc3nc4ccccc4n3c2ncn1Cc1ccccc1 ?
**A:** > 100 µM

###

Each record here notes measured TGI.
Tested on: SK-MEL-5 melanoma
run description: NCI tumour cell line growth inhibition, 48 h
# number only, unit µM dropped from output

Known TGI results, listed for orientation:
{"columns": ["compound", "experimental result"],
 "data": [
  ["COC(=O)C1OC(O[C@H]2CC[C@]3(C)[C@H]4CC=C5[C@@H]6CC(C)(C)CC[C@]6(C(=O)OC)CC[C@@]5(C)[C@]4(C)CC[C@H]3C2(C)C)C(O)C(O)C1O (some centres undefined)", 32.2],
  ["C=C1C(=O)OC2C1CCC(=C)C1CC(O)C(=C)C12 (centres undefined)", 30.6],
  ["COc1cc(/C=C/C(=O)c2cccc3ccccc23)cc(OC)c1OC", 23.8],
  ["CC(=O)O[C@@H]1[C@H](OC2CCCCC2(c2ccccc2)c2ccccc2)O[N+]([O-])=CC12CCCCC2 (some centres undefined)", 28.2]
]}

**Q:** Quick one: TGI of CN(C(=O)[C@H](NC(=O)OCc1ccccc1)c1ccccc1)C1CCCCC1N1CCCC1 (some centres undefined) ?
**A:** 41.2

**Q:** Quick one: TGI of CCOC(=O)/C(=C/CC/C(C)=C/CC/C(C)=C/CCc1ccoc1)CC(=O)N1CCCCC1 ?
**A:** 3.09

**Q:** Quick one: TGI of CN(C)c1ccc(/C=C/C(=O)c2cc(C(C)(C)C)c(O)c(C(C)(C)C)c2)cc1 ?
**A:** 16.5

**Q:** Quick one: TGI of Cc1c(C)c2c(c(C)c1OC(=O)CCC(=O)[O-])CCC(C)(CCCCCCCCCCC[P+](c1ccccc1)(c1ccccc1)c1ccccc1)O2 (centres undefined) ?
**A:** 0.182

**Q:** Quick one: TGI of CNC(=O)c1cc(Oc2ccc3nc(NC(=O)Nc4ccc(CN5CCOCC5)c(C(F)(F)F)c4)sc3c2)ccn1 ?
**A:** 2.22

**Q:** Quick one: TGI of Cc1ccc(Nc2c3c(c(C#N)c4nc5ccccc5n24)CCCC3)cc1 ?
**A:** 23.4

###

Tested on: KM12 colon
run description: NCI tumour cell line growth inhibition, 48 h
Each record here notes measured TGI.

Known TGI results, listed for orientation:
{"columns": ["molecule", "subject of test", "TGI"],
 "data": [
  ["CC(C)C[S+]1C2=C([O-])CC(C)(C)CC2=Nc2ccccc21 (stereo not given)", "KM12 colon", "> 100 µM"],
  ["COc1ccc(C(=O)/C=C/c2sc(Cl)nc2Cl)cc1", "KM12 colon", "7.54 µM"],
  ["O=C(NCCCCCCCCCCCCNC(=O)c1cnc2ccccc2n1)c1cnc2ccccc2n1", "KM12 colon", "> 100 µM"],
  ["Cc1cc(F)c(C(=O)Nc2cccc(-c3nncn3C(C)C)n2)cc1-n1cnc(C2CC2)c1", "KM12 colon", "95.6 µM"],
  ["O=C(COc1ccc(/C=C2\\Oc3ccc4ccccc4c3C2=O)cc1)c1ccc([N+](=O)[O-])cc1", "KM12 colon", "23.4 µM"],
  ["C1=N[C@]23C(=N[C@H](N=C2NCc2ccco2)[C@]24N=CNC2=N[C@H]3N=C4NCc2ccco2)N1", "KM12 colon", "> 100 µM"],
  ["O=c1cc(-c2ccc(Cl)cc2)[nH]c2ccccc12", "KM12 colon", "> 100 µM"],
  ["COc1cccc(N/C(C)=C2/CCOC2=O)c1", "KM12 colon", "> 10 µM"],
  ["COc1ccc(-n2cc(-c3cc(OC)c(OC)c(OC)c3)nc2SCc2ccc(Cl)cc2)cc1OC", "KM12 colon", "> 100 µM"]
]}

**Q:** Return TGI measured with KM12 colon given this molecule: COc1ccc(/C=C2/N=C(N/N=C\C(O)C(O)C(O)CO)NC2=O)cc1 (stereo not given)
**A:** > 100 µM

###

Tested on: NCI/ADR-RES ovarian
run description: NCI tumour cell line growth inhibition, 48 h
Each record here notes measured TGI.

Known TGI results, listed for orientation:
{"columns": ["compound", "experimental result"],
 "data": [
  ["CCO/C(O)=C(/C(=N)N1CCOCC1)C(=O)Nc1cccc(C(F)(F)F)c1", "> 100 µM"],
  ["CCOC(=O)C1(CC(=O)O)CCCC1=O (centres undefined)", "> 100 µM"],
  ["OCC1NC(COC2OC(CO)C(O)C(O)C2O)C(O)C(O)C1O (centres undefined)", "> 100 µM"],
  ["CC12NC(=C(C#N)C#N)C(C#N)=C3NC(N)=C(C#N)C(=C31)Oc1ccccc12 (centres undefined)", "> 100 µM"],
  ["Cc1ccc(Nc2c3c(c(C#N)c4nc5ccccc5n24)CCCC3)cc1", "61.9 µM"],
  ["C[C@@H]1C[C@H]2OC(=O)[C@@]3(C)CCC[C@@](C)([C@@H]23)[C@@]1(O)CCc1ccoc1", "> 100 µM"]
]}

**Q:** Quick one: TGI of O=C(O)c1cc2ccccc2c(Cc2c(O)c(C(=O)O)cc3ccccc23)c1O ?
**A:** > 100 µM

**Q:** Quick one: TGI of Cn1c(N/N=C/c2ccccc2)nc(-c2ccc3c(c2)OCO3)c(C#N)c1=O ?
**A:** > 100 µM

**Q:** Quick one: TGI of CN(C)c1ccc(/C=C/C(=O)c2cc(C(C)(C)C)c(O)c(C(C)(C)C)c2)cc1 ?
**A:** 6.64 µM

###

Tested on: HCC-2998 colon
run description: NCI tumour cell line growth inhibition, 48 h
quantity kind: TGI

**Q:** Quick one: TGI of NC(CCSCC(F)(F)F)C(=O)O (stereo unspecified) ?
**A:** > 100 µM

**Q:** Quick one: TGI of CN(C)CCCNC(=O)N/N=C/c1ccc(O)cc1 ?
**A:** > 100 µM

**Q:** Quick one: TGI of O=CC(OC(=O)c1ccccc1)C(OC(=O)c1ccccc1)C(COC(c1ccccc1)(c1ccccc1)c1ccccc1)OC(=O)c1ccccc1 (stereo unspecified) ?
**A:** 31.5 µM

**Q:** Quick one: TGI of COC(=O)C(=O)C(CC(=O)Nc1cc(Cl)ccc1Cl)C(=O)OC (stereo unspecified) ?
**A:** > 100 µM

**Q:** Quick one: TGI of Cc1ccc2nc(N)[nH]c(=O)c2c1Sc1ccncc1 ?
**A:** > 100 µM

**Q:** Quick one: TGI of CCOC(=O)c1c(N2CCCC2)[nH]c(=O)c(C(c2c(O)c(C(=O)OCC)c(N3CCCC3)[nH]c2=O)C(C)C)c1O ?
**A:** > 100 µM

###

System: NCI-H522 lung
run description: NCI tumour cell line growth inhibition, 48 h
Each record here notes measured TGI.

Known TGI results, listed for orientation:
{"columns": ["compound", "experimental result"],
 "data": [
  ["CN(C(=O)[C@H](NC(=O)OCc1ccccc1)c1ccccc1)C1CCCCC1N1CCCC1 (stereo not given in full)", "> 100 µM"],
  ["Cc1cc(C)cc(Nc2nnc3n2S(=O)(=O)c2cc(C)c(Cl)cc2S3)c1", "22.6 µM"],
  ["COc1ccc(-n2cc(-c3cc(OC)c(OC)c(OC)c3)nc2SCc2ccc(Cl)cc2)cc1OC", "> 100 µM"],
  ["Nc1cn(C2OC(CC(c3ccccc3)(c3ccccc3)c3ccccc3)C(O)C2O)c(=O)[nH]c1=O (stereo not given)", "38.3 µM"],
  ["COC(CNC(=O)CNC(=O)c1ccc(C(F)(F)F)cc1)OC", "> 100 µM"],
  ["O=[N+]([O-])c1cc(Br)cc2cc(Cl)cnc12", "> 100 µM"]
]}

Then there is this compound:
**Q:** Return TGI measured with NCI-H522 lung given this compound: O=C(COc1ccc(/C=C2\Oc3ccc4ccccc4c3C2=O)cc1)c1ccc([N+](=O)[O-])cc1
**A:** 5.41 µM

Data credit: PubChem BioAssay (NCI)
